- Tested on: A498 renal
- Measurement Description: NCI-60 one-dose screen, 48 h
- Study Conditions: 10 µM unless noted
Compounds without any hit were thinned out: in the full panel of roughly 83,000, 20% have a hit. The source made the active and inactive calls. Rule for the calls: active = growth percent below 10; inactive = the rest.
Outcomes: label 1 (active), label 0 (inactive)

- Compound: "S=P(Nc1ccccc1)(Nc1ccccc1)c1ccccc1"
  Class Label: "label 0"
- Compound: "CC12CCC(=O)C=C1CCC1C2CCC2(C)C(C(=O)COC(=O)Cc3ccc(N(CCCl)CCCl)cc3)CCC12 (centres undefined)"
  Class Label: "label 0"
- Compound: "O=C(NCCNC(=O)c1ccc([As](O)O)cc1)c1ccc([As](O)O)cc1"
  Class Label: "label 0"
- Compound: "CCOC(=O)C1(c2ccccc2)CCN(CC(=O)c2ccc(NC(C)=O)cc2)CC1"
  Class Label: "label 0"
- Compound: "CC(C)(C)NCC(O)c1ccccc1Cl (centres undefined)"
  Class Label: "label 1"
- Compound: "CC(C)C1c2ccc(O)cc2Oc2nc(N)c(C#N)c(N)c21 (centres undefined)"
  Class Label: "label 0"
- Compound: "CC(=O)Nc1ccc(Cc2ccc(NC(C)=O)cc2)cc1"
  Class Label: "label 0"
- Compound: "COc1cccc2c1C(=O)c1c(O)c3c(c(O)c1C2=O)CC(O)(/C(C)=N/NC(=O)CCC(=O)N/N=C(\\C)C1(O)Cc2c(O)c4c(c(O)c2C(OC2CC(N)C(O)C(C)O2)C1)C(=O)c1c(OC)cccc1C4=O)CC3OC1CC(N)C(O)C(C)O1 (centres undefined)"
  Class Label: "label 1"
- Compound: "COc1cc(C2=NN(c3ccccc3)C(c3sc(N(CCCl)CCCl)nc3Cl)C2)cc(OC)c1OC (centres undefined)"
  Class Label: "label 0"

---

- Test system: EKVX NSCLC
- Measurement Description: NCI-60 one-dose screen, 48 h
- Study Conditions: 10 µM unless noted
- Description: Growth inhibition of the EKVX human Non-Small Cell Lung tumor cell line is measured as a screen for anti-cancer activity. Cells are grown in 96 well plates and exposed to the test compound for 48 hours. Compounds are tested at a single concentration, which is 10^-5 M for most compounds. The reported endpoint is percent growth (GI% or GIPRCNT), where numbers from 0 - 100% represent growth inhibition, and numbers from -100% - 0 represent cell death. […]
This is part of a sample that, as a whole, favours compounds with a hit. Of some 83,000 tested, about 20% had one in any assay. The source made the active and inactive calls. Rule for the calls: active = growth percent below 10; inactive = the rest.
Classes used: T = active, F = inactive

- Compound: "CC1=C(SCCC(=O)OCC(=O)NCCC[Te]c2ccccc2)C(=O)c2ccccc2C1=O"
  Target Entity: "EKVX NSCLC"
  Class Label: "T"
- Compound: "CCN1CC2(CN(CC)C1=S)C(=O)NC(=O)NC2=O"
  Target Entity: "EKVX NSCLC"
  Class Label: "F"
- Compound: "CC1(C)CC2(CC(C)(C)c3cc(O)c(O)cc32)c2cc(O)c(O)cc21"
  Target Entity: "EKVX NSCLC"
  Class Label: "F"
- Compound: "CNc1ccc(C(=O)CC(O)CCC(C)C2OC(=O)CC(O)CC(=O)CC(O)CC(O)CC(O)CC(O)CC3(O)CC(O)C(C(=O)OC)C(CC(O[C@@H]4O[C@H](C)[C@@H](O)[C@H](N)[C@@H]4O)/C=C/C=C/C=C/C=C/C=C/C=C/C=C/C2C)O3)cc1 (some centres undefined)"
  Target Entity: "EKVX NSCLC"
  Class Label: "T"

---

Parameter growth: see the listing below.
- Tested on: HL-60(TB) leukemia
- Measurement Description: NCI-60 one-dose screen, 48 h (100 = growth as untreated, 0 = no growth, -100 = all killed)
- Study Conditions: 10 µM unless noted
The panel holds about 83,000 compounds, 20% with a hit somewhere; the sample as a whole holds those more often. Calls of active or inactive are those of the source. How the source made its calls: active means growth percent below 10; inactive means the rest.
Quantity: growth

- Molecule: "CS(=O)(=O)c1ccc(-n2nc(-c3ccc(Br)cc3)c3ccccc3c2=O)cc1"
  Reported Value: "93.3% (inactive)"
- Molecule: "COC(=O)C1=CCC(n2cnc3c(N)ncnc32)O1 (stereo unspecified)"
  Reported Value: "94% (inactive)"
- Molecule: "CCOC(=O)c1c(C)nc2c(c1N)CC(=O)N2CCc1ccccc1"
  Reported Value: "-3.38% (active)"
- Molecule: "Cc1c2cnccc2c(C)c2c1c1cc(C#N)ccc1n2C"
  Reported Value: "-48.8% (active)"
- Molecule: "NC(N)=N/N=C(/c1ccccc1)c1ccc(F)cc1"
  Reported Value: "-70.6% (active)"
- Molecule: "Oc1c(I)cc(I)cc1CN(Cc1ccccn1)Cc1ccccn1"
  Reported Value: "2.58% (active)"

---

- System: HL-60(TB) leukemia
- Measurement Description: NCI-60 one-dose screen, 48 h
- Study Conditions: 10 µM unless noted
The panel holds about 83,000 compounds, 20% with a hit somewhere; the sample as a whole holds those more often. Active and inactive are the calls of the source. How the source made its calls: active means growth percent below 10; inactive means the rest.
Outcome codes: active, inactive

- Compound: "COc1cc(CC(=O)c2ccc(O)c(OC)c2)ccc1O"
  Target Entity: "HL-60(TB) leukemia"
  Class Label: "inactive"
- Compound: "COc1ccccc1/C=C1\\COc2ccc(O)cc2C1=O"
  Target Entity: "HL-60(TB) leukemia"
  Class Label: "active"
- Compound: "NS(=O)(=O)c1ccc(NC2=C(Cl)C(=O)c3ccccc3C2=O)cc1"
  Target Entity: "HL-60(TB) leukemia"
  Class Label: "inactive"
- Compound: "Cc1ccc(-c2c3c(N)nc(-c4ccncc4)nc3nc3c2c(C)nn3-c2ccccc2)cc1"
  Target Entity: "HL-60(TB) leukemia"
  Class Label: "inactive"
- Compound: "CCCCN(CCCC)c1cc(C(=O)CCCCCN)c2ccccc2n1"
  Target Entity: "HL-60(TB) leukemia"
  Class Label: "active"
- Compound: "CC(C)=CCCC(C)c1ccc(C)c2c1OCN(CCCCCO)C2 (stereo not given)"
  Target Entity: "HL-60(TB) leukemia"
  Class Label: "inactive"
- Compound: "C=C1C(=O)C2CCC1C2 (stereo not given)"
  Target Entity: "HL-60(TB) leukemia"
  Class Label: "inactive"
- Compound: "O=C(Nc1ccccc1N1CCCC1=O)c1oc2ccc(F)cc2c1-c1cnn(-c2ccccc2)c1"
  Target Entity: "HL-60(TB) leukemia"
  Class Label: "inactive"
- Compound: "Cc1ccn2c(-c3csc(Nc4cccc(O)c4)n3)c(C)nc2c1"
  Target Entity: "HL-60(TB) leukemia"
  Class Label: "active"
- Compound: "c1ccc2c(-c3c[nH]c4ccccc34)c3c(cc2c1)[nH]c1ccccc13"
  Target Entity: "HL-60(TB) leukemia"
  Class Label: "inactive"
- Compound: "Cc1cc(N(CCCNc2ccnc3cc(Cl)ccc23)Cc2ccccn2)nc(N2CCCC2)n1"
  Target Entity: "HL-60(TB) leukemia"
  Class Label: "inactive"
- Compound: "CC1=CN2C(=O)C3C4=C(CCCC4)SC3N=C2CN1c1c(C)cccc1C (stereo not given)"
  Target Entity: "HL-60(TB) leukemia"
  Class Label: "active"
- Compound: "CC(=O)N(Cc1ccccc1)c1nc2ccc(O)c(CN(C)C)c2s1"
  Target Entity: "HL-60(TB) leukemia"
  Class Label: "inactive"
- Compound: "CCOC(=O)C1C(=O)NC(C(=O)OCC)(C(=O)OCC)C1CC (stereo not given)"
  Target Entity: "HL-60(TB) leukemia"
  Class Label: "inactive"
- Compound: "Cn1cc(-c2noc(C(=O)c3cn(C)c4ncc(Br)cc34)n2)c2ccccc21"
  Target Entity: "HL-60(TB) leukemia"
  Class Label: "inactive"
- Compound: "C=C1C(=O)O[C@H]2[C@H]1CC/C(COC(=O)N[C@@H](Cc1c[nH]c3ccccc13)C(=O)OC)=C\\CC[C@@]1(C)O[C@@H]21"
  Target Entity: "HL-60(TB) leukemia"
  Class Label: "active"
- Compound: "CCOC(=O)c1sc(NC(=O)COc2ccc(/C=C3\\CCc4cc(OC)ccc4C3=O)cc2)nc1C"
  Target Entity: "HL-60(TB) leukemia"
  Class Label: "active"
- Compound: "Cc1cccc(-c2nc(N(C)c3ccc4ncsc4c3)c3ccccc3n2)n1"
  Target Entity: "HL-60(TB) leukemia"
  Class Label: "inactive"
- Compound: "CN(C)c1ccc(C2C(C#N)=C(/N=C/c3ccccc3)Oc3c2ccc2ccccc32)cc1 (stereo not given)"
  Target Entity: "HL-60(TB) leukemia"
  Class Label: "inactive"
- Compound: "COc1cc(OC)c(C(=O)/C=C/c2cccc(C#N)c2)c(OC)c1"
  Target Entity: "HL-60(TB) leukemia"
  Class Label: "active"
- Compound: "CNC(C)[C@H]1CCC2C3CC=C4C(=O)[C@@H](NC(=O)C=C(C)C)CC[C@]4(C)C3CC[C@@]21C (stereo not given in full)"
  Target Entity: "HL-60(TB) leukemia"
  Class Label: "active"
- Compound: "CC(C)N1C(=O)/C(=c2\\sc3n(c2=O)C2C(NN=3)N(C)C(=O)N2C)c2ccccc21 (stereo not given)"
  Target Entity: "HL-60(TB) leukemia"
  Class Label: "inactive"
- Compound: "N#CC1=CC2CN(Cc3ccccc3)C1C1C(=O)N(c3ccccc3)C(=O)C21 (stereo not given)"
  Target Entity: "HL-60(TB) leukemia"
  Class Label: "inactive"
- Compound: "O=C(Nc1cccc(-n2ccc3c(NC(=O)c4ccccc4)nccc32)c1)c1cc(N2CCOCC2)cc(C(F)(F)F)c1"
  Target Entity: "HL-60(TB) leukemia"
  Class Label: "active"
- Compound: "C=C(NC(=O)[C@H](C(C)C)N(C)c1cccc2[nH]ccc12)C(=O)OC"
  Target Entity: "HL-60(TB) leukemia"
  Class Label: "inactive"
- Compound: "N#CC(I)CS(=O)(=O)c1ccccc1 (stereo not given)"
  Target Entity: "HL-60(TB) leukemia"
  Class Label: "inactive"
- Compound: "Cc1cc(O)ccc1Sc1ccccc1[N+](=O)[O-]"
  Target Entity: "HL-60(TB) leukemia"
  Class Label: "inactive"
- Compound: "CCN(CC)CCCC(C)N/C(c1cccc(OC)c1)=c1\\c(=O)[nH]n(-c2c3ccccc3nc3ccccc23)c(=O)\\c1=C(/NC(C)CCCN(CC)CC)c1cccc(OC)c1 (stereo not given)"
  Target Entity: "HL-60(TB) leukemia"
  Class Label: "active"
- Compound: "ClCCN(CCCl)C(c1ccccc1)c1ccc(Cl)cc1 (stereo not given)"
  Target Entity: "HL-60(TB) leukemia"
  Class Label: "inactive"
- Compound: "OCCn1cc(-c2nc(-c3c[nH]c4ncccc34)cs2)c2cc(F)ccc21"
  Target Entity: "HL-60(TB) leukemia"
  Class Label: "inactive"
- Compound: "O=C1/C(=C/c2ccc(OCc3ccccc3)cc2)Oc2cc(OCCN3CCCCC3)ccc21"
  Target Entity: "HL-60(TB) leukemia"
  Class Label: "inactive"
- Compound: "CC(C)(C)c1cc(C(=O)Nc2cc3ccccc3cc2C(=O)NCCN)cc(C(C)(C)C)c1"
  Target Entity: "HL-60(TB) leukemia"
  Class Label: "active"
- Compound: "CN1CCN(C(=O)c2ccc(NC(=O)c3cc4c(nn3)NCCN4Cc3cc(Cl)ccc3Cl)cc2)CC1"
  Target Entity: "HL-60(TB) leukemia"
  Class Label: "inactive"
- Compound: "COc1cc2cc(Oc3ccc(NC(=O)Nc4ccccc4)cc3)c(C)nc2cc1OCCN1CCCCC1"
  Target Entity: "HL-60(TB) leukemia"
  Class Label: "active"
- Compound: "CCCCCc1c(C)[nH]c(/C=C2\\N=C(c3ccc[nH]3)C=C2Oc2ccc(Cl)cc2)c1C"
  Target Entity: "HL-60(TB) leukemia"
  Class Label: "active"
- Compound: "COc1ccc2nc3cc(Cl)ccc3c(N3CCN(c4nccc(NCc5ccccc5)n4)CC3)c2c1"
  Target Entity: "HL-60(TB) leukemia"
  Class Label: "inactive"
- Compound: "Oc1ccc(Nc2ccc3ccccc3c2)cc1"
  Target Entity: "HL-60(TB) leukemia"
  Class Label: "inactive"
- Compound: "COc1cccc(Cn2cc3c(c2)-c2oncc2CC3)c1"
  Target Entity: "HL-60(TB) leukemia"
  Class Label: "active"
- Compound: "Nc1ccc(-c2cc3c(Nc4ccc(Oc5cccc(C(F)(F)F)c5)c(Cl)c4)ncnc3s2)cc1"
  Target Entity: "HL-60(TB) leukemia"
  Class Label: "inactive"
- Compound: "CNC(=O)c1cc(Oc2ccc3nc(NC(=O)NC(C)C)sc3c2)ccn1"
  Target Entity: "HL-60(TB) leukemia"
  Class Label: "inactive"
